Tested on: primary cortical neuronal cultured cells
Assay: Test compound cytotoxicity, MTS assay, primary cortical neuronal cultures
Format: cell-based, mouse
Settings: 10 μM test compound
Label key: true (1) means Cytotox (% viable) Neuronal cells at 10 μM under 60%; false (0) means Cytotox (% viable) Neuronal cells at 10 μM of 60% or more.

[[record]]
compound = "Cc1noc(C)c1Cn1cnc2c(O)c(Cl)cc(Cl)c2c1=O"
assigned_category = "false (0)"

[[record]]
compound = "Cc1ccccc1-c1cc(-c2ccccc2C)c2cccnc2c1O"
assigned_category = "true (1)"

[[record]]
compound = "O/N=C/c1ccc2cccc(O)c2n1"
assigned_category = "false (0)"

[[record]]
compound = "O=C(O)CCCn1cnc2c(O)c(Cl)cc(Cl)c2c1=O"
assigned_category = "false (0)"

[[record]]
compound = "Oc1c(-c2ccccc2)cc(-c2ccccc2)c2cccnc12"
assigned_category = "true (1)"

[[record]]
compound = "O=c1c(-c2ccc(Cl)cc2)cnc2c(O)cccn12"
assigned_category = "true (1)"

[[record]]
compound = "NCCNC(=O)c1ccc2cccc(O)c2n1"
assigned_category = "false (0)"

[[record]]
compound = "Nc1ccccc1NC(=O)c1cc(O)c2cccc(O)c2n1"
assigned_category = "false (0)"

[[record]]
compound = "COc1ccccc1-c1cc(-c2ccccc2OC)c2cccnc2c1O"
assigned_category = "true (1)"

[[record]]
compound = "O=c1c2c(Cl)cc(Cl)c(O)c2ncn1Cc1cccc(Cn2cnc3c(O)c(Cl)cc(Cl)c3c2=O)n1"
assigned_category = "false (0)"

[[record]]
compound = "Oc1c(Br)cc(Br)c2cccnc12"
assigned_category = "false (0)"

[[record]]
compound = "O=c1c2c(Cl)cc(Cl)c(O)c2ncn1Cc1ccccn1"
assigned_category = "false (0)"

[[record]]
compound = "COc1ccc(-n2cnc3c(O)c(Cl)cc(Cl)c3c2=O)cn1"
assigned_category = "false (0)"

[[record]]
compound = "O=c1c(-c2ccc(Cl)cc2)cnc2c(O)c(I)ccn12"
assigned_category = "true (1)"

[[record]]
compound = "Oc1cccc2ccc(CNCc3ccccn3)nc12"
assigned_category = "false (0)"

[[record]]
compound = "Cc1ccccc1-c1cc(I)c(O)c2ncccc12"
assigned_category = "true (1)"

[[record]]
compound = "Oc1c(Br)cc(-c2ccccc2)c2cccnc12"
assigned_category = "false (0)"

[[record]]
compound = "Br.CC(Br)CCn1cnc2c(O)c(Cl)cc(Cl)c2c1=O (stereo not shown)"
assigned_category = "false (0)"

[[record]]
compound = "O=c1c2c(Cl)cc(Cl)c(O)c2ncn1Cc1ccncc1"
assigned_category = "false (0)"

[[record]]
compound = "CN(CCc1ccccn1)Cc1ccc2cccc(O)c2n1"
assigned_category = "true (1)"


====

Tested on: primary cortical neuronal cultured cells
Experiment: Test compound cytotoxicity, MTS assay, primary cortical neuronal cultures
Type: cell-based, mouse
Conditions: 1 μM test compound
Overview of recorded Cytotox (% viable) Neuronal cells at 1 μM for various compounds
endpoint label: Cytotox (% viable) Neuronal cells at 1 μM (%)

[[record]]
compound = "Br.CC(Br)CCn1cnc2c(O)c(Cl)cc(Cl)c2c1=O (centres unmarked)"
unit_label = "%"
experimental_result = 101

[[record]]
compound = "Oc1c(-c2ccccc2C(F)(F)F)cc(Cl)c2cccnc12"
unit_label = "%"
experimental_result = 96

[[record]]
compound = "O=c1c2c(Cl)cc(Cl)c(O)c2ncn1CCN1CCCC1"
unit_label = "%"
experimental_result = 104

[[record]]
compound = "CN(C)Cc1ccc2c(Cl)cc(Cl)c(O)c2n1.Cl"
unit_label = "%"
experimental_result = 84

[[record]]
compound = "O=c1c2c(Cl)cc(Cl)c(O)c2ncn1CC1CC1"
unit_label = "%"
experimental_result = 116

[[record]]
compound = "Oc1c(Br)cc(-c2ccccc2)c2cccnc12"
unit_label = "%"
experimental_result = 100

[[record]]
compound = "CCC(C)n1cnc2c(O)c(Cl)cc(Cl)c2c1=O (centres unmarked)"
unit_label = "%"
experimental_result = 94

[[record]]
compound = "O=c1c2c(Cl)cc(Cl)c(O)c2ncn1Nc1ccc(F)cc1F"
unit_label = "%"
experimental_result = 100

[[record]]
compound = "Oc1c(Cl)cc(Cl)c2cccnc12"
unit_label = "%"
experimental_result = 98

[[record]]
compound = "Oc1cccc2ccc(-c3ccccn3)nc12"
unit_label = "%"
experimental_result = 107

[[record]]
compound = "Oc1c(C2CC2)ncc2cccnc12"
unit_label = "%"
experimental_result = 100

[[record]]
compound = "O=c1c(-c2ccc(Cl)cc2)cnc2c(O)c(I)ccn12"
unit_label = "%"
experimental_result = 41

[[record]]
compound = "NCCNC(=O)c1ccc2cccc(O)c2n1"
unit_label = "%"
experimental_result = 106

[[record]]
compound = "COc1ccccc1-c1cc(I)c(O)c2ncccc12"
unit_label = "%"
experimental_result = 91

[[record]]
compound = "Cc1cc(C)c2cccnc2c1O"
unit_label = "%"
experimental_result = 86

[[record]]
compound = "Br.Oc1cccc2c(=S)n(Cc3ccccn3)cnc12"
unit_label = "%"
experimental_result = 97

[[record]]
compound = "Br.CNCc1nc2c(O)c(Cl)cc(Cl)c2c(=O)n1C"
unit_label = "%"
experimental_result = 105.4

[[record]]
compound = "Cn1nccc1-n1cnc2c(O)c(Cl)cc(Cl)c2c1=O"
unit_label = "%"
experimental_result = 104.6

[[record]]
compound = "COc1cccc(-c2cc(Cl)c3cccnc3c2O)c1"
unit_label = "%"
experimental_result = 83

[[record]]
compound = "O=c1c2c(Cl)cc(Cl)c(O)c2ncn1CCc1ccccn1"
unit_label = "%"
experimental_result = 100

[[record]]
compound = "CN(C)c1ccc(-c2cc(Cl)c3cccnc3c2O)cc1"
unit_label = "%"
experimental_result = 94

[[record]]
compound = "Cc1noc(C)c1Cn1cnc2c(O)c(Cl)cc(Cl)c2c1=O"
unit_label = "%"
experimental_result = 99

